Biological target: ST3Gal-II (Rattus norvegicus, UniProt Q11205)
Construct: purchased Calbiochem
Sequence (Q11205 whole entry): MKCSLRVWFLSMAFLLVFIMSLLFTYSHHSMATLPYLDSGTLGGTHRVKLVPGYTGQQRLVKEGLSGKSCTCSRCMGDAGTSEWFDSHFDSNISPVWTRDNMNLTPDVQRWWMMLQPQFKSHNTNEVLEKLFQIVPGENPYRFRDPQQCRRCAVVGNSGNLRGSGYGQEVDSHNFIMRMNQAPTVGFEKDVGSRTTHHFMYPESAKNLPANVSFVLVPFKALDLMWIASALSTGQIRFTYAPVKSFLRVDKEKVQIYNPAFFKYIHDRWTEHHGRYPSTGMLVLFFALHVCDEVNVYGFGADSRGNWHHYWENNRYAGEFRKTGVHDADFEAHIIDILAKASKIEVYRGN
Test: Serial transfer of sialic acid from donor via 5′-CMP to acceptors (scheme-II)
Type: biochemical
Details: acceptor 2.5 mM, 150 μM donor [4], 1 mM 5′-CMP, 4 hours
I would appreciate it if you labelled entries 1 (yes) when Incorporation of [9-3H]NeuAc from donor [4], percent of the CPM incorporated into [5] is 20% or higher, otherwise 0 (no).

Request: Is reported Incorporation of [9-3H]NeuAc from donor [4], percent of the CPM incorporated into [5] greater than or equal to 20% here: COC[C@H]1O[C@H](OCc2ccccc2)[C@H](NC(C)=O)[C@@H](O[C@@H]2O[C@H](CO)[C@H](O)[C@H](O)[C@H]2O)[C@H]1O [[8], Galβ1,3(6-O-Me)GalNAcα-O-Bn]
Result: 1 (yes)

Request: Does Incorporation of [9-3H]NeuAc from donor [4], percent of the CPM incorporated into [5] meet or surpass 20% for CC(=O)N[C@H]1[C@H](OCc2ccccc2)O[C@H](CO)[C@@H](O[C@@H]2O[C@H](CO)[C@H](O)[C@H](O)[C@H]2O)[C@@H]1O [[12], Galβ1,4GlcNAcβ-O-Bn] ?
Result: 0 (no)

Request: Given CO[C@@H]1[C@H](O)[C@@H](O)[C@H](O[C@H]2[C@@H](O)[C@@H](CO[C@@H]3O[C@H](CO)[C@@H](O[C@@H]4O[C@H](CO)[C@H](O)[C@H](O)[C@H]4O)[C@H](O)[C@H]3NC(C)=O)O[C@H](OCc3ccccc3)[C@@H]2NC(C)=O)O[C@@H]1CO [[13]] , state whether its Incorporation of [9-3H]NeuAc from donor [4], percent of the CPM incorporated into [5] is at least 20%.
Result: 0 (no)

Request: # bool: Incorporation of [9-3H]NeuAc from donor [4], percent of the CPM incorporated into [5] of CC(=O)N[C@H]1[C@H](OC[C@H]2O[C@H](OCc3ccccc3)[C@H](NC(C)=O)[C@@H](O[C@@H]3O[C@H](CO)[C@H](O)[C@H](O)[C@H]3O)[C@H]2O)O[C@H](CO)[C@@H](O[C@@H]2O[C@H](CO)[C@H](O)[C@H](O)[C@H]2O)[C@@H]1O [[10], Galβ1,4GlcNAcβ1,6(Galβ1,3)GalNAcα-O-Bn] >= 20%
Result: 0 (no)

Request: Quick check: does CO[C@H]1[C@@H](O)[C@@H](CO)O[C@@H](O[C@H]2[C@H](O)[C@@H](NC(C)=O)[C@H](OC[C@H]3O[C@H](OCc4ccccc4)[C@H](NC(C)=O)[C@@H](O[C@@H]4O[C@H](CO)[C@H](O)[C@H](O)[C@H]4O)[C@H]3O)O[C@@H]2CO)[C@@H]1O [[9]] have Incorporation of [9-3H]NeuAc from donor [4], percent of the CPM incorporated into [5] greater than or equal to 20%?
Result: 0 (no)

Request: Is Incorporation of [9-3H]NeuAc from donor [4], percent of the CPM incorporated into [5] for CC(=O)N[C@H]1[C@H](OC[C@H]2O[C@H](OCc3ccccc3)[C@H](NC(C)=O)[C@@H](O[C@@H]3O[C@H](C)[C@H](O)[C@H](O)[C@H]3O)[C@H]2O)O[C@H](CO)[C@@H](O)[C@@H]1O [[6], D-Fucβ1,3(GlcNAcβ1,6)GalNAcα-O-Bn] at or above 20%?
Result: 1 (yes)

Request: Textbook exercise: given the entry CO[C@@H]1[C@H](O)[C@@H](O)[C@H](O[C@H]2[C@@H](O)[C@@H](CO)O[C@H](OCc3ccccc3)[C@@H]2NC(C)=O)O[C@@H]1CO [[11], 4-O-MeGalβ1,3GalNAcα-O-Bn] , state whether its Incorporation of [9-3H]NeuAc from donor [4], percent of the CPM incorporated into [5] is greater than or equal to 20%.
Result: 0 (no)

Request: Given the entry CC(=O)N[C@H]1[C@@H](OCc2ccccc2)O[C@H](CO)[C@H](O)[C@@H]1O[C@@H]1O[C@H](CO)[C@H](F)[C@H](O)[C@H]1O [[7], 4-FGalβ1,3GalNAcα-O-Bn] , answer whether its Incorporation of [9-3H]NeuAc from donor [4], percent of the CPM incorporated into [5] meets or surpasses 20%.
Result: 1 (yes)
